Hey, just so you know, these numbers are from the supplement of paper PMC10567573.

Consider the following variants; for each one, report its protein stability index.
B1: HSP90AB1 (parent)
chain: TLRQKAEADKNDKAVKDLVVLLFE

# Variants of: B1
# Test protocol: protein stability index of a GFP-peptide fusion (GPS, HEK-293T) (PSI 1-6); higher = more stable;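 note: lentivirally expressed fusions sorted by FACS into six bins by GFP to DsRed ratio, PSI derived from sequencing read proportions per bin multiplied by bin number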
# Condition: c terminus: a fixed tail appended
Write the number on its own, no unit after it.

Requested read-out: protein stability index. Entry: TLRQKAEADKNIKAVKDLVVLLFE [D12I]
2

Requested read-out: protein stability index. Entry: TLRQKAEADKNDKAVKDLVVLHFE [L22H]
3.79

Requested read-out: protein stability index. Entry: ALRQKAEADKNDKAVKDLVVLLFE [T1A]
3.35

Requested read-out: protein stability index. Entry: TLRQKAEADKNDKALKDLVVLLFE [V15L]
2.81

Requested read-out: protein stability index. Entry: TLRQKAEADKNDKAVKDLVVYLFE [L21Y]
2.41

Requested read-out: protein stability index. Entry: TLRQKAEADKNDKAVKDLVVLLFP [E24P]
1.71

Requested read-out: protein stability index. Entry: TLRQKAEADLNDKAVKDLVVLLFE [K10L]
2.61

Requested read-out: protein stability index. Entry: TLRQKAEADKNDKAVKDLVVLLFS [E24S]
2.19

Requested read-out: protein stability index. Entry: TLRQKAEADINDKAVKDLVVLLFE [K10I]
3.06

Requested read-out: protein stability index. Entry: TLRQKAEADTNDKAVKDLVVLLFE [K10T]
2.92

Requested read-out: protein stability index. Entry: TLRQKAEADKNDKAVKDLVYLLFE [V20Y]
2.7

Requested read-out: protein stability index. Entry: TLRQKAEGDKNDKAVKDLVVLLFE [A8G]
3.9

Requested read-out: protein stability index. Entry: TLRQKAEADKNDKMVKDLVVLLFE [A14M]
2.73

Requested read-out: protein stability index. Entry: TLRQKAPADKNDKAVKDLVVLLFE [E7P]
2.58

Requested read-out: protein stability index. Entry: TLRQKMEADKNDKAVKDLVVLLFE [A6M]
2.93

Requested read-out: protein stability index. Entry: TLREKAEADKNDKAVKDLVVLLFE [Q4E]
3.39

Requested read-out: protein stability index. Entry: TLRQKAEADKNDKAVKDLPVLLFE [V19P]
4.38

Requested read-out: protein stability index. Entry: TLRQKAEADKNDKAVKFLVVLLFE [D17F]
1.51

Requested read-out: protein stability index. Entry: TLRQKAEADKNDKAVKDLVVLLIE [F23I]
2.88

Requested read-out: protein stability index. Entry: TLRQKAEADKNDKDVKDLVVLLFE [A14D]
2.58

Requested read-out: protein stability index. Entry: TLHQKAEADKNDKAVKDLVVLLFE [R3H]
2.84

Requested read-out: protein stability index. Entry: TLRQKAEADKNDKAVEDLVVLLFE [K16E]
3.06
